target: HLA-A*02:01 (Homo sapiens, UniProt P04439, D140Y/D185E/D98H/E176V/E277Q/G131W/G231S/I119V/I121R/I166T/I218V/L300P/L318F/N151K/N90K/P208A/P217A/Q86G/Q94H/R138H/R169H/T345S); assay: MHC binding assay (UV-ligand exchange, ELISA of exchange yield); conditions: binding to HLA-A*02:01, UV-ligand exchange
valueKind: Peptide exchange (MHC class I binding score, peptide exchange yield)

These recorded examples may help you get a feel for the data.
[[record]]
substance = "232 (ALLEAQDVELYL; listed as Homo sapiens) [compound 232]"
result = "“++” (≥20% = ++)"

[[record]]
substance = "436 (HLAEVSAEV; listed as Homo sapiens) [compound 436]"
result = "“+++” (≥50 = +++)"

[[record]]
substance = "29 (KMLGIPISNILMV; listed as Homo sapiens) [compound 29]"
result = "“+++” (≥50 = +++)"

[[record]]
substance = "66 (FLDENIGGVAV; listed as Homo sapiens) [compound 66]"
result = "“+++” (≥50 = +++)"

[[record]]
substance = "381 (FIDEAYVEV; listed as Homo sapiens) [compound 381]"
result = "“++” (≥20% = ++)"


Return Peptide exchange (MHC class I binding score, peptide exchange yield) (reported value) for this substance: 9 (GAAKDLPGV; listed as Homo sapiens) [compound 9]
“++” (≥20% = ++)

Return Peptide exchange (MHC class I binding score, peptide exchange yield) (reported value) for this substance: 245 (SMIDDLLGV; listed as Homo sapiens) [compound 245]
“+++” (≥50 = +++)

Return Peptide exchange (MHC class I binding score, peptide exchange yield) (reported value) for this substance: 481 (GLIEDYEALL; listed as Homo sapiens) [compound 481]
“+++” (≥50 = +++)

Return Peptide exchange (MHC class I binding score, peptide exchange yield) (reported value) for this substance: 408 (VLDDSIYLV; listed as Homo sapiens) [compound 408]
“++” (≥20% = ++)
